Each entry below carries its reported IC50.
- Experimental Target: KDR (VEGFR2) kinase (Homo sapiens)
- Sequence (P35968 20-1356): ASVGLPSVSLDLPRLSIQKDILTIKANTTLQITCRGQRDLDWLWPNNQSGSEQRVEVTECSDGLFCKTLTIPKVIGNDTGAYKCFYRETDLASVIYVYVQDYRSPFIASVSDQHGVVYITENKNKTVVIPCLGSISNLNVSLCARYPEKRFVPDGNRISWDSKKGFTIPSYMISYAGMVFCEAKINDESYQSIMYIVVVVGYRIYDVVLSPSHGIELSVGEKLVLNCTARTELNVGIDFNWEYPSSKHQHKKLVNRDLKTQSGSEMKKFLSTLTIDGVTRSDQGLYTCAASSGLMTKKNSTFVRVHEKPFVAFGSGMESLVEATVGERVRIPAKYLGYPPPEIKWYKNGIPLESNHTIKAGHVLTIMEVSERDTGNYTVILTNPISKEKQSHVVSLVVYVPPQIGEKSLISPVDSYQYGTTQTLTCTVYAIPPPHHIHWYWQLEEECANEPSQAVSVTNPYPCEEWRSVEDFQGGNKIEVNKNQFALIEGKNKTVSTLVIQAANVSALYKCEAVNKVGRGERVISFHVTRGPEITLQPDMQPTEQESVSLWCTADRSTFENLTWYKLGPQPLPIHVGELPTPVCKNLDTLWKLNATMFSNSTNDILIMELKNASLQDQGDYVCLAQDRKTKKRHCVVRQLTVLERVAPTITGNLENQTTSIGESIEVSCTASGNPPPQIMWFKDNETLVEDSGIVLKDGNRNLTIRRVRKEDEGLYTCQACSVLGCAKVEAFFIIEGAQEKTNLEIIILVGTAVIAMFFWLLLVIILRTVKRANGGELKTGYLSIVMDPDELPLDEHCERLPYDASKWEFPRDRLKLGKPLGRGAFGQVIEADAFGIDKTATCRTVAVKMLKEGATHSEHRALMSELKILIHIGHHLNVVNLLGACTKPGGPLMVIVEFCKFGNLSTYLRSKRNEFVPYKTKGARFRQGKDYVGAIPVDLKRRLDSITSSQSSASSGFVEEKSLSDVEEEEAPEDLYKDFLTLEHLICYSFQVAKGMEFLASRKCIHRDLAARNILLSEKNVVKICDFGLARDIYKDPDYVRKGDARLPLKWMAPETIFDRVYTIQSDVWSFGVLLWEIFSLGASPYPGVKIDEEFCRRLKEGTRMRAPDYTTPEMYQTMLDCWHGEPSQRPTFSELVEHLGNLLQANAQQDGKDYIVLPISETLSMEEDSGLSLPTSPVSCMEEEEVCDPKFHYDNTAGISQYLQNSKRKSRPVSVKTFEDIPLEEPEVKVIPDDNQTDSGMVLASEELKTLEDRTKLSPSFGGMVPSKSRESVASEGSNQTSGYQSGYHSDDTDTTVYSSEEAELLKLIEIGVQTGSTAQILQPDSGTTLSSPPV

>>> assay_value("Nc1n[nH]c2cccc(-c3ccc(NC(=O)Nc4c(Cl)cccc4Cl)cc3)c12")
"> 10 µM"

Now turn to the next compound.
Entry Cc1ccc(F)c(NC(=O)Nc2ncc(-c3cccc4[nH]nc(N)c34)cn2)c1 has what IC50?
> 10 µM

----------
- Tested on: preretinal neovascularization
- Measurement Notes: Rat oxygen-induced retinopathy (OIR) model, regression
- Assay type: in vivo
- Measurement Conditions: dose-response, single ivt injection
- Procedure: METHODS: Pregnant Sprague-Dawley rats were received at 14 days gestation and subsequently gave birth on Day 22±1 of gestation. […] Computerized image analysis was used to obtain a NV clockhour score from each readable sample. Each clockhour out of 12 total per retina was assessed for the presence or absence of preretinal NV. […]
Property: ED50 (nmole) (nmol)
// return numeric value only (unit: nmol, not printed)

Worked examples, 3 molecules total:
>>> assay_value("Cc1cccc(NC(=O)Nc2ccc(-c3csc4c(-c5ccncc5)cnc(N)c34)cc2)c1")
39.46
>>> assay_value("Cc1cccc(NC(=O)Nc2ccc(-c3csc4c(-c5cccnc5)cnc(N)c34)cc2)c1")
20.86
>>> assay_value("Cc1cccc(NC(=O)Nc2ccc(-c3cncc4[nH]nc(N)c34)cc2)c1")
25.47

Lab note: next molecule to report on.
Field request: ED50 (nmole) | item: Cc1cccc(NC(=O)Nc2ccc(-c3csc4ncnc(N)c34)cc2)c1
24.31
